These data points were gathered from PubChem BioAssay (NCI).

Measured TGI, listed per entry.
test system: HCT-116 colon; experiment: NCI tumour cell line growth inhibition, 48 h

O=C1CSC2(CC(/C=C/C=C/c3ccccc3)=NN2c2cccc(S(=O)(=O)O)c2)N1c1nc2ccccc2s1 (stereo unspecified): > 100 µM
O=C1C=CC(=O)c2c(O)c(N3CCSCC3)c(Cl)c(O)c21: 1.03 µM
C=C(CCOC)CCC1CCCCC(=C)C1=O (stereo unspecified): > 100 µM
CC(C)(CN1CCCCC1)C(=O)CC(SCCS(=O)(=O)O)c1ccc(Br)cc1 (stereo unspecified): 3.04 µM
C[C@@H](NC(=O)Cc1cc(F)cc(F)c1)C(=O)N[C@@]1(C)N=C(c2ccccc2)c2ccccc2N(C)C1=O: > 100 µM
Oc1cc2cc(-c3ccccc3)[nH]c2c2ccccc12: 37.1 µM
CC1CCC(O)C(C(O)CC2CC(=O)N(C)C(=O)C2)C1 (stereo unspecified): > 100 µM
O=c1oc2ccccc2cc1-c1nc2ccc([N+](=O)[O-])cc2o1: > 100 µM
C=C[C@]1(C)CC[C@]2(C)C(CC[C@@]3(C)C2C[C@H](O)[C@H](O)[C@@]3(C)O)C1 (stereo partly specified): > 100 µM
C=CCc1c(O)c2ccccc2[nH]c1=O: > 100 µM

// switching to the query compound
# TGI (compound: COc1cn2c(cc1=O)COc1ccc(-c3ccccc3)cc1-2 ) is > 100 µM

----------
test system: MOLT-4 leukemia; assay: NCI tumour cell line growth inhibition, 48 h
The entries below are paired with their reported TGI.

Cc1ccc(NC(=O)CCC(=O)C2CC(=O)CC/C2=N\NC(=O)c2cc3ccccc3cc2O)cc1C (stereo not given): 99.6 µM

Item O=C1c2ccccc2-c2ccc(NC(=O)C3CCCCC3C(=O)O)cc21 (stereo not given) was tested on MOLT-4 leukemia; the reported TGI is > 100 µM

Entry O=c1c(Cc2ccc(Cl)cc2)nnc2sc(-c3ccc([N+](=O)[O-])cc3)nn12 , tested on MOLT-4 leukemia, has a reported TGI of > 100 µM

MOLT-4 leukemia data for O=S1(=O)NNC(=NCc2ccc(F)cc2)c2ccccc21 ; its TGI: > 70.8 µM

Test item CC[C@]12C=CCN3CC[C@]4(C(=C(C(=O)OC)C1)Nc1cc(O)ccc14)[C@@H]32 ; MOLT-4 leukemia; reported TGI was 74.2 µM

Test item Cn1c(N)c(/C=N/NC(=O)CC#N)c(=O)n(C)c1=O ; MOLT-4 leukemia; reported TGI was > 100 µM

Entry O=C1CCC2(CCC(=O)NC2=O)C(=O)N1 under MOLT-4 leukemia had TGI of > 100 µM

Record CCC1OCCN1C(C)C (stereo not given) / MOLT-4 leukemia, TGI recorded as > 100 µM

I looked up C/C(=N\NS(=O)(=O)c1ccc(C)cc1)c1ccc[n+]([O-])n1 and its TGI for MOLT-4 leukemia was > 100 µM

Entry COC(=O)[C@H](Cc1ccccc1)NC(=O)c1csc([C@@H](C[C@H](C(C)C)N(C)C(=O)[C@@H](NC(=O)[C@H]2CCCCN2C)C2CC2)OC(C)=O)n1 , tested on MOLT-4 leukemia, has a reported TGI of > 25 µM

----------
tested on: NCI-H522 lung; assay: NCI tumour cell line growth inhibition, 48 h
Where a SMILES comes first, the peptide text is derived from it. [ ]: non-standard residue; d: D form. The star is where a group is joined. ξ: configuration not given here. NMeY = CN[C@@H](Cc1ccc(O)cc1)C(=O)O; Cbz = O=C(OCc1ccccc1)*; ξA = CC(N)C(=O)O
MEASURED PROPERTY: TGI

CCCC/C(=N\N=C(N)N)c1ccc(F)cc1: 16.5 µM
CC(C)=CC(=O)O[C@@H]1CC(C)(C)CC2C3=CCC4[C@]56CC[C@](O)(OC5)C(C)(C)C6CC[C@@]4(C)C3(C)CC[C@]21C(=O)O (some centres not stated): > 100 µM
CCN(CC)CCC(=O)Nc1ccc(Cn2nnc3c2C(=O)c2nnn(Cc4ccc(NC(=O)CCN(CC)CC)cc4)c2C3=O)cc1: 0.423 µM
CC(=O)N(C(C)=O)n1c(Cc2ccc(Cl)cc2)nn(C(C)=O)c1=O: > 100 µM
O=C1c2ccccc2NC2C(O)c3ccccc3N12 (configuration not stated): > 100 µM
C/C(=N\N=C(N)N)c1c(C(=O)OCCCCCCOC(=O)c2nc3sccn3c2/C(C)=N/N=C(N)N)nc2sccn12: > 100 µM

Summary for this molecule, COc1cc2ccn3c4cc(OC)c(OC)cc4cc3c2cc1OC : TGI is > 100 µM

Given item C/C(=N\N(C)C)C(CN(C)C)C(c1ccccc1)c1c(O)c2ccccc2oc1=O (configuration not stated) , the value recorded as its TGI is > 100 µM

// recorded TGI for CCC1OCCN1C(C)C (configuration not stated) : > 100 µM

TGI for O=CNc1cccc2c3c([nH]c12)CCCCCC3 is > 100 µM

According to the records, this molecule CCN(CC)CCOc1ccc(/C=C2\C[C@H]3[C@@H]4CC=C5C[C@@H](OC(C)=O)CC[C@]5(C)[C@H]4CC[C@]3(C)[C@H]2OC(C)=O)cc1OC displays TGI of > 50 µM

According to the records, this molecule O=C1OCC(C(=O)c2cccc(O)c2)C1=O (configuration not stated) displays TGI of > 100 µM

Note to self: TGI recorded for CC(=O)[CH-]C(=O)c1ccccc1.CC(=O)[CH-]C(=O)c1ccccc1.[O]=[U+2]=[O] was > 100 µM

Value of measured TGI for the entry COc1cc(C2C(Cl)C(=O)N2c2ccc(Br)cc2)cc(I)c1O (configuration not stated) : > 100 µM

# TGI of O=c1c2ccccc2nc(-c2ccccc2)n1NCC1(O)OCC(O)C(O)C1O (configuration not stated) = > 100 µM

Form: molecule = COc1ccc(C[C@@H](C(=O)NCC(N)=O)N(C)C(=O)[C@@H]2CCCN2C(=O)[C@H](CC(C)C)NC(=O)C(C)NC(=O)OCc2ccccc2)cc1 (some centres not stated) (Cbz-[ξA]LP[NMeY](Me)G-NH2) ; TGI = > 100 µM

Memo: Cc1ccc2c(c1)c(=O)c1c(NCCN(C)C)ccc3nnn2c31 , reported TGI: 17.6 µM
